# Study system: T1, His-tagged P3028 peptide (PGE73) (human)
# T1 construct: albumin-derived peptide, in solution at 0.5 ug/mL; not shown: His-tag
# T1 peptide: VFDEFKPLVEEPQNLIK
# Run description: PEPSCAN ELISA, peptide on card
Measurement label: RAMPO Score
Answer field: number only, no words.

Data request: I'd like to know its RAMPO Score. The binder in question is KKLDTFFVKSSLFTER [SEQ ID NO: 341 KKLDTFFVKSSLFTER]
Data returned: 351

Data request: Note, next up: KKLDTFFVKFSLFTER [SEQ ID NO: 333 KKLDTFFVKFSLFTER]
Data returned: 403

Data request: Note, next up: KKCDTFFVKLSLFTER [SEQ ID NO: 283 KKCDTFFVKLSLFTER]
Data returned: 432

Data request: Note, next up: KKFDTFFVKLSLFTER [SEQ ID NO: 286 KKFDTFFVKLSLFTER]
Data returned: 393
